experiment: NCI Yeast Anticancer Drug Screen. Data for the bub3 strain (AID 167); details: S. cerevisiae bub3 mutant strain, at 50.0 µM, active compounds read high
Compounds without any hit were thinned out: in the full panel of roughly 79,000, 15% have a hit.
observation_type: growth inhibition (%)
Answers are plain numbers, in %.

Consider the worked cases shown below.
{"molecule": "COc1ccc(-c2csc(C)n2)cc1OC", "growth inhibition, %": 0.25}
{"molecule": "O=C1Oc2cc3c(c4cccc1c24)OCN(c1ccccc1)C3", "growth inhibition, %": 49}
{"molecule": "CC1=C(C(=O)OC(C)C)C(c2ccccc2[N+](=O)[O-])C(C(=O)OC(CO[N+](=O)[O-])CO[N+](=O)[O-])=C(C)N1 (centres undefined)", "growth inhibition, %": 87.2}

Please look at the items below and tell me growth inhibition for each one, in order.
1. O=C(CSCc1c(F)cccc1Cl)Nc1ccc(F)c(Cl)c1
2. CCOC(=O)C1CC(C(=O)OCC)C(=O)C1=O (centres undefined)
3. O=C(CS)Nc1ccccc1

91.5
94
56.2

Please look at the items below and tell me growth inhibition for each one, in order.
1. O=C(c1ccccc1)c1ccc(Br)cc1O
2. CC[C@@H]1O[C@@H]([C@@H]2CC[C@](O)([C@]3(C)CC[C@@H]([C@@H](C)[C@@]4(O)CC[C@H](C)[C@@H](C[C@@]5(O)O[C@@H]([C@@H](C)[C@H](O)C[C@H]6CC[C@H](C)[C@@H]([C@@H](C)C(=O)O)O6)CC[C@@H]5C)O4)O3)O2)CC[C@@]1(C)O
3. CCOC(=O)N/N=C/c1ccc([N+](=O)[O-])o1

38.1
87.2
82.1

* * *

test: NCI Yeast Anticancer Drug Screen. Data for the cln2 rad14 strain (AID 165);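 note: 0% = growth equal to vehicle treated cultures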; conditions: S. cerevisiae cln2 rad14 strain, at 50.0 µM (retest, dose inferred, filed as 5.0), active compounds read high
The panel holds about 79,000 compounds, 15% with a hit somewhere; the sample as a whole holds those more often. Activity calls are given as the source filed them. Cut-off read from the data, not from the text of the source: active = growth inhibition above about 70%; inactive = the rest.
observation_type: growth inhibition

{"compound": "C[C@H](CCC1=NCCN1)[C@H]1CC[C@H]2[C@@H]3[C@H](O)C[C@@H]4C[C@H](O)CC[C@]4(C)[C@H]3CC[C@]12C", "growth inhibition": "99% (active)"}
{"compound": "Fc1ccccc1CN1COc2c(cc(Cl)c3cccnc23)C1", "growth inhibition": "98% (active)"}
{"compound": "CCCCCN(C(=O)CCl)c1ccccc1", "growth inhibition": "5% (inactive)"}

Please look at the items below and tell me growth inhibition for each one, in order.
1. NCCCC(=O)NC(Cc1cnc[nH]1)C(=O)O (stereo not drawn)
2. CCOC(=O)C(NC(C)=O)[CH](c1ccccc1)[Sn]([Cl])([c]1ccccc1)[c]1ccccc1 (stereo not drawn)
3. CNC(=O)NC(c1cc(OC)c(OC)c(OC)c1)c1cc2c(cc1O)OCO2 (stereo not drawn)
4. COc1c(O)cc2c(c1O)C(=O)C1=C(CCCC1)C2=O
5. Cc1cc(NC(=S)SCc2ccc(F)cc2)ccc1Br

1: -2% (inactive); 2: -2% (inactive); 3: -15% (inactive); 4: 22% (inactive); 5: 99% (active)

* * *

assay: NCI Yeast Anticancer Drug Screen. Data for the mlh1 rad18 strain (AID 175); settings: S. cerevisiae mlh1 rad18 strain growth inhibition; at 50.0 µM; active compounds read high
This is part of a sample that, as a whole, favours compounds with a hit. Of some 79,000 tested, about 15% had one in any assay. The source made the active and inactive calls. Rule as the data show it: active = growth inhibition above about 70%; inactive = the rest.
observation_type: growth inhibition

Consider the worked cases shown below.
{"compound": "Cc1cc(Sc2ccccc2)c2c(C)ccc(C(C)C)cc1-2", "growth inhibition": "58% (inactive)"}
{"compound": "CN(C)C=Nc1ccc2nonc2c1", "growth inhibition": "0.9% (inactive)"}
{"compound": "CC(=O)c1sc2c(c1O)c(=O)n(-c1ccccc1)c(=S)n2-c1ccccc1", "growth inhibition": "29.9% (inactive)"}
{"compound": "Cc1nc2c(cnn2C)cc1CCc1ccccc1", "growth inhibition": "23.6% (inactive)"}

Please look at the items below and tell me growth inhibition for each one, in order.
1. Clc1ccc(C2SCc3nc4ccccc4n32)cc1Cl (configuration not stated)
2. CC1CCC(SC2CC(=O)CCC2=O)CC1 (configuration not stated)
3. COc1ccccc1NC(=O)c1ccccc1F
4. CCOP(=O)(OCC)/C(C#N)=C/c1ccc(Oc2ccccc2)cc1

1: 95% (active); 2: 98.6% (active); 3: -9.6% (inactive); 4: 89.8% (active)

Please look at the items below and tell me growth inhibition for each one, in order.
1. Brc1ccc(N2COc3ccc4ccccc4c3C2)cc1
2. O=C(O)CCCNc1ncc2c(n1)-c1ccccc1OC2
3. Cc1cccc2c1nc1ccccc1[n+]2C
4. O=C(CSc1nnc(Cc2ccccc2)o1)Nc1ccc(Cl)cc1

46.4% (inactive)
-9.3% (inactive)
97.5% (active)
28.8% (inactive)

Please look at the items below and tell me growth inhibition for each one, in order.
1. O=C(NC1CCN(Cc2ccccc2)CC1)c1ccccc1I
2. COC1CCC(/C(C#N)=C/c2ccco2)CC1 (configuration not stated)
3. CN=C(N)N/N=C(\C)c1ccc2c(ccc3ccccc32)c1
4. COc1cccc2c1C(=O)c1c(O)c3c(c(O)c1C2=O)C[C@@](O)(C(O)CO)C[C@@H]3OC1CC(N(Cc2ccccc2)Cc2ccccc2)C(O)C(C)O1 (some centres not stated)

1. 80.8% (active)
2. 57.1% (inactive)
3. 91.7% (active)
4. 84% (active)

Please look at the items below and tell me growth inhibition for each one, in order.
1. CC1=CC(C)C(C)N(CCNC(=O)Nc2ccccc2)c2ccccc21 (configuration not stated)
2. Cc1c2ccccc2c(C)c2c1cc(F)c1ccccc12

1: 70.2% (active); 2: 93.8% (active)

Please look at the items below and tell me growth inhibition for each one, in order.
1. C=C1C(=O)C23OC2C1CCC(=O)C1(C)CC[C@H](OC(C)=O)C(C)(C)[C@H]1CC3O (some centres not stated)
2. CC(C)(C)c1cc(Cl)c(O)c(Cc2cc(C(C)(C)C)cc(Cl)c2O)c1
3. Clc1ccc2nc3ccccc3nc2c1
4. CC(C)OC(=O)Oc1c(Cl)c(Cl)c(Cl)c(Cl)c1Cl
5. Oc1c(Cl)cc(Cl)cc1/C=C1\C=Nc2ccccc21
6. CCCCCCCCCCCCNC(=O)c1ccc[n+](Cc2ccc(Cl)c(Cl)c2)c1
7. CN(C)CC(CN(C)C)C(=O)c1ccc2c(c1)OCO2

["99% (active)", "70.5% (active)", "93.8% (active)", "56.8% (inactive)", "4.95% (inactive)", "98.7% (active)", "93% (active)"]

Please look at the items below and tell me growth inhibition for each one, in order.
1. O=C1/C(=C\c2ccc([N+](=O)[O-])o2)Oc2cc(O)ccc21
2. Cc1occc1C(=S)Nc1ccc(Cl)c(C(=O)OCC(F)(F)F)c1
3. COc1cc(C2CC(=O)c3ccccc3O2)ccc1O (configuration not stated)
4. C[C@]12C[C@@H](c3ccccc3)Nc3ccccc3N1C(c1ccccc1)=NO2
5. CSc1nc(NC2OC(CO)C(O)C(O)C2O)c(Cl)c(=O)[nH]1 (configuration not stated)
6. COC(=O)Cc1nc2ccccc2s1
7. Cc1ccc2nc(N/N=C/c3cccc(C)n3)cc(C)c2c1

95.7% (active)
86.8% (active)
89.5% (active)
73.5% (active)
1.05% (inactive)
99% (active)
84.3% (active)

Please look at the items below and tell me growth inhibition for each one, in order.
1. O=C1CCC(c2ccccc2)=NN1c1nc2ccccc2s1
2. O=C1CSC(=S)N1/N=C/c1ccc(Cl)c([N+](=O)[O-])c1
3. COc1ccc(/C=C2/C(=O)N(C(=O)c3ccccc3O)N=C2C)cc1OC
4. CC(=O)Nc1ccc(/C=N\NC(=O)c2ccco2)cc1
5. Clc1ccc(OCC2CO2)c(Cl)c1 (configuration not stated)
6. O=C1OC(C2OC(=O)C(=O)C2C(=O)c2ccc([N+](=O)[O-])cc2)C(C(=O)c2ccc([N+](=O)[O-])cc2)C1=O (configuration not stated)
7. COC(=O)C(Sc1ccc(Cl)cc1)C1SC(=S)N(C)C1=O (configuration not stated)
8. CCCCCCCCCCCCCCC[N+]1(CC)CCCCC1

1: 99.5% (active); 2: 61.2% (inactive); 3: 54.6% (inactive); 4: 0.4% (inactive); 5: 96.8% (active); 6: 96.5% (active); 7: 58% (inactive); 8: 89.2% (active)

Please look at the items below and tell me growth inhibition for each one, in order.
1. O=C(/C=C\c1ccc(Cl)c(Cl)c1)c1cccs1
2. Cn1cnc([N+](=O)[O-])c1Sc1nnnn1-c1ccccc1
3. C=C(C)C(CC=C(C)C)Cc1c(O)cc(OC)c2c1OC(c1ccc(O)cc1O)C(O)C2=O (configuration not stated)
4. O=NNc1ccc(-c2ccc([N+](=O)[O-])cc2)cn1
5. O=C(CC(c1ccccc1)N1CCCCC1)OC1c2ccccc2-c2ccccc21 (configuration not stated)

85.5% (active)
80.5% (active)
85.3% (active)
30.1% (inactive)
55.8% (inactive)

Please look at the items below and tell me growth inhibition for each one, in order.
1. S=c1nc(C(c2ccccc2)c2ccccc2)[nH][nH]1
2. C=CC1(c2ccc(OC)cc2)OCCCO1

65.5% (inactive)
89% (active)

Attribution: PubChem BioAssay (NCI)
